Target: T1, human transferrin receptor (recombinant, for surface plasmon resonance) (human, UniProt P02786 89-760)
T1 construct: also called huTfR; human transferrin receptor-biotinylated
T1 sequence (P02786 89-760 limits assumed): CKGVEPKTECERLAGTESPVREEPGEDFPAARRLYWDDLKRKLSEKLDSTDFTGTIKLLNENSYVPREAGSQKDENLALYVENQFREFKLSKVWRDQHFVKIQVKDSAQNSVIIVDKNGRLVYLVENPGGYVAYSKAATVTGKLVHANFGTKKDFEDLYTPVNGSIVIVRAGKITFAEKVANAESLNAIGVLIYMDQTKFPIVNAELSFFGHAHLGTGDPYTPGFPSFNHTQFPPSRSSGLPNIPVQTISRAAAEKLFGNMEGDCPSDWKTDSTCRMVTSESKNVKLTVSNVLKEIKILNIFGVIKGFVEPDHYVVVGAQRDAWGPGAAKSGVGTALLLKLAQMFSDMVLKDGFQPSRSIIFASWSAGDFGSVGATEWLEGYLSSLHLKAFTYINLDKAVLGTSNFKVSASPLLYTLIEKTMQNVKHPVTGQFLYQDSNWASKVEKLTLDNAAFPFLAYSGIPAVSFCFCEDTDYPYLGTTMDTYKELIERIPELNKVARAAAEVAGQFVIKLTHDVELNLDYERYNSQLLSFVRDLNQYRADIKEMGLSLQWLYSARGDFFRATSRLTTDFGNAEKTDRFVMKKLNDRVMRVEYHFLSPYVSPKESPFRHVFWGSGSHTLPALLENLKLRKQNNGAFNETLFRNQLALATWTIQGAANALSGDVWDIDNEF
Experiment: SPR 25C
value-type: koff (s⁻¹)
State just the number; it will be interpreted in s⁻¹.

Worked cases, koff given:
- binder: "2/99 VH6/VL3 (antibody, V domains shown) VH: QQLVETGGGLIQPGGSLRLSCAASGFSLSSYAMSWVRQAPGKGLEWIGYIWSGGSTDYADSVKGRFTISRDNSKNTLYLQMNSLRAEDTAVYYCARRYGTSYPDYGDANGFDPWGQGTLVTVSS VL: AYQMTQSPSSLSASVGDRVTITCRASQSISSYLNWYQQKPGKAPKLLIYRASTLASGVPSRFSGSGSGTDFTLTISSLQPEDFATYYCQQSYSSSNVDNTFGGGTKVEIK"
  koff [s⁻¹]: 0.00282
- binder: "2/99 VH18/VL7 (antibody, V domains shown) VH: QVQLQESGPGLVKPSQTLSLTCTVSGFSLSSYAMSWIRQHPGKGLEWIGYIWSGGSTDYAPSLKSRVTISVDTSKNQFSLKLSSVTAADTAVYYCARRYGTSYPDYGDANGFDPWGQGTLVTVSS VL: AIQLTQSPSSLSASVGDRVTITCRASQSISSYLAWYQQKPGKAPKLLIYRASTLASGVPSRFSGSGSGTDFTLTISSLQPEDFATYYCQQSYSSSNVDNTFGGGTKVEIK"
  koff [s⁻¹]: 0.00766

Next binder, koff to be filled in.
# koff (binder: 2/99 VH6/VL2 (antibody, V domains shown) VH: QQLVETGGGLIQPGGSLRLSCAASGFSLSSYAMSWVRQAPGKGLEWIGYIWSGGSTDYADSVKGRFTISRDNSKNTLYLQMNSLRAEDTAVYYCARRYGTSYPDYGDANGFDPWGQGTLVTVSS VL: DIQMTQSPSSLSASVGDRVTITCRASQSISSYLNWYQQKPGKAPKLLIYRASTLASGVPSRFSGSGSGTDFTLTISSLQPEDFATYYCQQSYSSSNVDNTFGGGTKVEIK ) is 0.00187
